All values here come from patent US9040663B2.

tested system: UniProt P32245
Sequence (P32245 whole entry): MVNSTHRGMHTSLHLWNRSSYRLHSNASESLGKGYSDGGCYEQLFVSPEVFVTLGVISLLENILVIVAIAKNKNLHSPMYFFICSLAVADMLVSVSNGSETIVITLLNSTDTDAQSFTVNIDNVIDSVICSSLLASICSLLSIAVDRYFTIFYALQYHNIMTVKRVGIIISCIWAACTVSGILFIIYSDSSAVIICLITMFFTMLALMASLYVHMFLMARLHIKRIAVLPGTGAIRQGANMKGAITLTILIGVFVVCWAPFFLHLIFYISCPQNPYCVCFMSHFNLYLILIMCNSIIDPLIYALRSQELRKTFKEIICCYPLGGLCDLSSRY
protocol description: Competitive inhibition binding assay using [I125]-NDP-α-MSH, hMC4-R
experimental conditions: membranes of HEK-293 cells expressing recombinant hMC4-R, read-out: MC4-R Ki
pKi: −log10 of the molar value.
Listed here: items and their measured pKi.

molecule	tested system	pKi
CC(=O)N[C@@H](CCCNC(=N)N)C(=O)N[C@H]1CCC(=O)NCCC[C@@H](C(N)=O)NC(=O)[C@H](Cc2c[nH]c3ccccc23)NC(=O)[C@H](CCCNC(=N)N)NC(=O)[C@@H](Cc2ccccc2F)NC(=O)[C@@H]2CCCN2C1=O	UniProt P32245	8.22
CC(=O)N[C@@H](CCCNC(=N)N)C(=O)N[C@H]1CCCNC(=O)CC[C@@H](C(N)=O)NC(=O)[C@H](Cc2c[nH]c3ccccc23)NC(=O)[C@H](CCCNC(=N)N)NC(=O)[C@@H](Cc2ccccc2Cl)NC(=O)[C@H](CC(N)=O)NC1=O	UniProt P32245	8.15
CC(=O)N[C@@H](CCCNC(=N)N)C(=O)N[C@H]1CCC(=O)NCCC[C@@H](C(N)=O)NC(=O)[C@H](Cc2c[nH]c3ccccc23)NC(=O)[C@H](CCCNC(=N)N)NC(=O)[C@@H](Cc2cc(F)c(F)c(F)c2)NC(=O)[C@H](CCN)NC1=O	UniProt P32245	9.18
CC(=O)N[C@@H](CCCNC(=N)N)C(=O)N[C@H]1CCC(=O)NCCC[C@@H](C(N)=O)NC(=O)[C@H](Cc2c[nH]c3ccccc23)NC(=O)[C@H](CCCNC(=N)N)NC(=O)[C@@H](Cc2cccc(Cl)c2)NC(=O)[C@H](CCN)NC1=O	UniProt P32245	9.12
CC(=O)N[C@@H](CCCNC(=N)N)C(=O)N[C@H]1CCC(=O)NCCC[C@@H](C(N)=O)NC(=O)[C@H](Cc2c[nH]c3ccccc23)NC(=O)[C@H](CCCNC(=N)N)NC(=O)[C@@H](Cc2ccc(F)cc2)NC(=O)[C@H](CCS(C)(=O)=O)NC1=O	UniProt P32245	8.70
CC(=O)N[C@@H](CCCNC(=N)N)C(=O)N[C@H]1CCC(=O)NCCC[C@@H](C(N)=O)NC(=O)[C@H](Cc2c[nH]c3ccccc23)NC(=O)[C@H](CCCNC(=N)N)NC(=O)[C@@H](Cc2ccc(F)cc2)NC(=O)[C@@H]2C[C@@H](O)CN2C1=O	UniProt P32245	9.00
CC(=O)N[C@@H](CCCNC(=N)N)C(=O)N[C@H]1CCC(=O)NCCC[C@@H](C(N)=O)NC(=O)[C@H](Cc2c[nH]c3ccccc23)NC(=O)[C@H](CCCNC(=N)N)NC(=O)[C@@H](Cc2ccc(C#N)cc2)NC(=O)[C@H](CC(N)=O)NC1=O	UniProt P32245	8.30
CC(=O)N[C@H](CCCNC(=N)N)C(=O)N[C@H]1CCCNC(=O)CC[C@@H](C(N)=O)NC(=O)[C@H](Cc2c[nH]c3ccccc23)NC(=O)[C@H](CCCNC(=N)N)NC(=O)[C@@H](Cc2cccc(Cl)c2)NC(=O)[C@H](Cc2c[nH]cn2)NC1=O	UniProt P32245	9.22
